pIC50: −log10 of the molar value.
Observed pIC50 for Human Carboanhydrase I (Homo sapiens, UniProt P00915), reported per entry below.
quantity-kind: pIC50

In [3]: df
Out[3]:
                                   compound                             target_system  quantity_kind  obs_value
0  C[C@]12CC[C@@H]3c4ccc(O)cc4CC[C@H]3[C@@H]1CC[C@@H]2OC(=O)c1cccc(S(N)(=O)=O)c1  Human Carboanhydrase I (Homo sapiens, UniProt P00915)          pIC50       6.42
1  C[C@]12CC[C@@H]3c4ccc(OS(N)(=O)=O)cc4CC[C@H]3[C@@H]1CC[C@@H]2O [Estradiol-3-sulfamate, reference compound]  Human Carboanhydrase I (Homo sapiens, UniProt P00915)          pIC50       6.80
2  C[C@]12CC[C@@H]3c4ccc(O)cc4CC[C@H]3[C@@H]1CC[C@@H]2OC(=O)c1ccc(S(N)(=O)=O)cc1  Human Carboanhydrase I (Homo sapiens, UniProt P00915)          pIC50       6.72
3  C[C@]12CC[C@@H]3c4ccc(O)cc4CC[C@H]3[C@@H]1CC[C@@H]2OC(=O)c1cc(S(N)(=O)=O)c(Cl)cc1Cl  Human Carboanhydrase I (Homo sapiens, UniProt P00915)          pIC50       6.30

---

RBA to Erythrocytes reference
system: erythrocytes; assay: Displacement of estradiol-3-sulfamate from the erythrocyte bond (relative binding affinity); parameters: species or system human; settings: human blood, displacement of 14C-labeled estradiol sulfamate
quantity-kind: RBA to Erythrocytes

>>> print(df.to_string())
                                   compound  obs_value
0  C[C@]12CC[C@@H]3c4ccc(O)cc4CC[C@H]3[C@@H]1CC[C@@H]2OC(=O)c1cccc(S(N)(=O)=O)c1       0.18
1  C[C@]12CC[C@@H]3c4ccc(O)cc4CC[C@H]3[C@@H]1CC[C@@H]2OC(=O)c1cc(S(N)(=O)=O)c(Cl)cc1Cl       0.40
2  C[C@]12CC[C@@H]3c4ccc(OS(N)(=O)=O)cc4CC[C@H]3[C@@H]1CC[C@@H]2O [Estradiol-3-sulfamate, reference compound]        100
3  C[C@]12CC[C@@H]3c4ccc(O)cc4CC[C@H]3[C@@H]1CC[C@@H]2OC(=O)c1ccc(S(N)(=O)=O)cc1         32

---

tested on: erythrocytes; assay: Determination of the erythrocyte/plasma ratio of the substance; format: in vitro ADME; details: fresh blood; tracer use for compound 1 or 9, otherwise non-radioactive
quantity-kind: Distribution Ratio of the Substance to Erythrocytes/Plasma

                                   molecule  target_system  obs_value
0  C[C@]12CC[C@@H]3c4ccc(OS(N)(=O)=O)cc4CC[C@H]3[C@@H]1CC[C@@H]2O [Estradiol-3-sulfamate, reference compound]   erythrocytes         49
1  C[C@]12CC[C@@H]3c4ccc(O)cc4CC[C@H]3[C@@H]1CC[C@@H]2OC(=O)c1ccc(S(N)(=O)=O)cc1   erythrocytes        7.7
2  C[C@]12CC[C@@H]3c4ccc(O)cc4CC[C@H]3[C@@H]1CC[C@@H]2OC(=O)c1cc(S(N)(=O)=O)c(Cl)cc1Cl   erythrocytes          5
3  C[C@]12CC[C@@H]3c4ccc(O)cc4CC[C@H]3[C@@H]1CC[C@@H]2OC(=O)c1cccc(S(N)(=O)=O)c1   erythrocytes          4
